# Test system: Puccinia triticina
# MEASUREMENT DESCRIPTION: Wheat brown rust (PUCCRT) fungicidal activity on wheat seedlings
# Type: in vivo
# SETTINGS: 72 h, 3 Day Curative, read-out: Disease Control PUCCRT 3 DC
Here the recorded pest or weed control at 100 ppm is given for each entry.

MOL SMILES | MEASURED
COc1ccnc(C(=O)N[C@H]2COC[C@H](Cc3ccccc3)[C@@H](OC3CCCC3)[C@H](C)OC2=O)c1O | 80 to 100%

Shifting focus to the compound that follows.
Inquiry: GET /values?readout=pest or weed control at 100 ppm&item= "COc1ccnc(C(=O)N[C@H]2COC[C@H](Cc3ccccc3)[C@@H](OCCC(C)C)[C@H](C)OC2=O)c1O"
Reply text: 0 to 80%

###

Here the recorded melting point is given for each entry.

Known melting point results, listed for orientation:
MOL SMILES | melting point
CC/C=C/CO[C@@H]1[C@@H](Cc2ccccc2)COC[C@H](N(C(=O)OC(C)(C)C)C(=O)OC(C)(C)C)C(=O)O[C@H]1C | 127 to 129 °C
C[C@@H]1OC(=O)[C@@H](NC(=O)OC(C)(C)C)COC[C@H](Cc2ccccc2)[C@H]1OCCC(=O)N(C)C | 142 to 143 °C

Shifting focus to the compound that follows.
Inquiry: GET /values?readout=melting point&item= "C[C@@H]1OC(=O)[C@@H](NC(=O)OC(C)(C)C)COC[C@H](Cc2ccccc2)[C@H]1O/C=C/C(=O)OCc1ccccc1"
Reply text: 182 to 185 °C

###

# System: Erysiphe cichoracearum
# MEASUREMENT DESCRIPTION: Powdery mildew of cucumber (ERYSCI) fungicidal activity
# Format: in vivo
# SETTINGS: Golovinomyces cichoracearum, 24 h, 1 Day Protectant, read-out: Disease Control ERYSCI 1DP
Here the recorded pest or weed control at 100 ppm is given for each entry.

Known pest or weed control at 100 ppm results, listed for orientation:
COMPOUND | SYSTEM TESTED | MEASURED PARAMETER | MEASURED
COc1ccnc(C(=O)N[C@H]2COC[C@H](Cc3ccccc3)[C@@H](OCC(C)C)[C@H](C)OC2=O)c1OC(=O)OC(C)C [Compound 10] | Erysiphe cichoracearum | pest or weed control at 100 ppm | 80 to 100%
COc1ccnc(C(=O)N[C@H]2COC[C@H](Cc3ccccc3)[C@@H](OC3CCCC3)[C@H](C)OC2=O)c1OC(C)=O [Compound 107] | Erysiphe cichoracearum | pest or weed control at 100 ppm | 0 to 80%
COC(=O)/C=C/O[C@@H]1[C@@H](Cc2ccccc2)COC[C@H](NC(=O)c2nccc(OC)c2OCOC(C)=O)C(=O)O[C@H]1C [Compound 36] | Erysiphe cichoracearum | pest or weed control at 100 ppm | 0 to 80%
CCCCCO[C@@H]1[C@@H](Cc2ccccc2)COC[C@H](NC(=O)c2nccc(OC)c2OCOC(C)=O)C(=O)O[C@H]1C [Compound 26] | Erysiphe cichoracearum | pest or weed control at 100 ppm | 80 to 100%

Inquiry: GET /values?readout=pest or weed control at 100 ppm&item= COc1ccnc(C(=O)N[C@H]2COC[C@H](Cc3ccccc3)[C@@H](OCC(C)C)[C@H](C)OC2=O)c1OCOC(C)=O [Compound 8]
Reply text: 80 to 100%

###

Here the recorded pest or weed control at 100 ppm is given for each entry.
# Tested on: Mycosphaerella graminicola; Anamorph: Septoria tritici
# MEASUREMENT DESCRIPTION: Leaf blotch of wheat (SEPTTR) fungicidal activity on wheat seedlings
# Type: in vivo
# SETTINGS: Zymoseptoria tritici, 24 h, 1 Day Protectant, read-out: Disease Control SEPTTR 1 DP
# Description: Evaluation of Fungicidal Activity: Leaf Blotch of Wheat (Mycosphaerella Graminicola; Anamorph: Septoria tritici; Bayer Code […]) Technical grades of materials were dissolved in acetone, which were then mixed with nine volumes of water containing 110 ppm Triton X-100. […] When disease symptoms were fully expressed on the 1st leaves of untreated plants, infection levels were assessed on a scale of 0 to 100 percent disease severity. […]

Known pest or weed control at 100 ppm results, listed for orientation:
COMPOUND | pest or weed control at 100 ppm
COc1ccnc(C(=O)N[C@H]2COC[C@H](Cc3ccccc3)[C@@H](OCCCc3ccccc3)[C@H](C)OC2=O)c1OCOC(C)=O | 80 to 100%
CCCO[C@@H]1[C@@H](Cc2ccccc2)COC[C@H](NC(=O)c2nccc(OC)c2O)C(=O)O[C@H]1C | 80 to 100%
COc1ccnc(C(=O)N[C@H]2COC[C@H](Cc3ccccc3)[C@@H](OCC(C)C)[C@H](C)OC2=O)c1O | 80 to 100%

Inquiry: GET /values?readout=pest or weed control at 100 ppm&item= "COc1ccnc(C(=O)N[C@H]2COC[C@H](Cc3ccccc3)[C@@H](OCCCC(F)(F)F)[C@H](C)OC2=O)c1O"
Reply text: 80 to 100%

Inquiry: GET /values?readout=pest or weed control at 100 ppm&item= "COc1ccnc(C(=O)N[C@H]2COC[C@H](Cc3ccccc3)[C@@H](OCCC(=O)N(C)C)[C@H](C)OC2=O)c1OCOC(C)=O"
Reply text: 0 to 80%

Inquiry: GET /values?readout=pest or weed control at 100 ppm&item= CCCC(C)O[C@@H]1[C@@H](Cc2ccccc2)COC[C@H](NC(=O)c2nccc(OC)c2O)C(=O)O[C@H]1C (stereo partly drawn)
Reply text: 80 to 100%

###

# System: Mycosphaerella graminicola; Anamorph: Septoria tritici
# MEASUREMENT DESCRIPTION: Leaf blotch of wheat (SEPTTR) fungicidal activity on wheat seedlings
# Format: in vivo
# SETTINGS: Zymoseptoria tritici, 24 h, 1 Day Protectant, read-out: Disease Control SEPTTR 1 DP
MEASURED PARAMETER: pest or weed control at 100 ppm

Known pest or weed control at 100 ppm results, listed for orientation:
MOL SMILES | SYSTEM TESTED | pest or weed control at 100 ppm
COc1ccnc(C(=O)N[C@H]2COC[C@H](CC3CCCCC3)[C@@H](OCC(C)C)[C@H](C)OC2=O)c1O | Mycosphaerella graminicola; Anamorph: Septoria tritici | 80 to 100%
COC(=O)/C=C/O[C@@H]1[C@@H](Cc2ccccc2)COC[C@H](NC(=O)c2nccc(OC)c2O)C(=O)O[C@H]1C | Mycosphaerella graminicola; Anamorph: Septoria tritici | 0 to 80%
COc1ccnc(C(=O)N[C@H]2COC[C@H](Cc3ccccc3)[C@@H](OCCCc3ccccc3)[C@H](C)OC2=O)c1O | Mycosphaerella graminicola; Anamorph: Septoria tritici | 0 to 80%
CCCCCO[C@@H]1[C@@H](Cc2ccccc2)COC[C@H](NC(=O)c2nccc(OC)c2O)C(=O)O[C@H]1C | Mycosphaerella graminicola; Anamorph: Septoria tritici | 0 to 80%
COc1ccnc(C(=O)N[C@H]2COC[C@H](Cc3ccccc3)[C@@H](OC/C=C/C(F)(F)F)[C@H](C)OC2=O)c1OCOC(C)=O | Mycosphaerella graminicola; Anamorph: Septoria tritici | 80 to 100%
COc1ccnc(C(=O)N[C@H]2COC[C@H](Cc3ccccc3)[C@@H](OCC(C)C)[C@H](C)OC2=O)c1OCOC(=O)C(C)C | Mycosphaerella graminicola; Anamorph: Septoria tritici | 80 to 100%

Shifting focus to the molecule that follows.
Inquiry: GET /values?readout=pest or weed control at 100 ppm&item= "COc1ccnc(C(=O)N[C@H]2COC[C@H](Cc3ccccc3)[C@@H](OC)[C@H](C)OC2=O)c1O"
Reply text: 0 to 80%

###

Here the recorded pest or weed control at 100 ppm is given for each entry.
# System: Puccinia triticina
# MEASUREMENT DESCRIPTION: Wheat brown rust (PUCCRT) fungicidal activity on wheat seedlings
# Type: in vivo
# SETTINGS: 72 h, 3 Day Curative, read-out: Disease Control PUCCRT 3 DC

Known pest or weed control at 100 ppm results, listed for orientation:
MOL SMILES | pest or weed control at 100 ppm
COc1ccnc(C(=O)N[C@H]2COC[C@H](Cc3ccccc3)[C@@H](OC)[C@H](C)OC2=O)c1O | 0 to 80%
COc1ccnc(C(=O)N[C@H]2COC[C@H](Cc3ccccc3)[C@@H](OC(=O)c3ccccc3)[C@H](C)OC2=O)c1OCOC(C)=O | 80 to 100%
COc1ccnc(C(=O)N[C@H]2COC[C@H](Cc3ccccc3)[C@@H](OCCC(=O)N(C)C)[C@H](C)OC2=O)c1OCOC(C)=O | 0 to 80%
COC(=O)CCO[C@@H]1[C@@H](Cc2ccccc2)COC[C@H](NC(=O)c2nccc(OC)c2OCOC(C)=O)C(=O)O[C@H]1C | 0 to 80%
COc1ccnc(C(=O)N[C@H]2COC[C@H](Cc3ccccc3)[C@@H](OC3CCCC3)[C@H](C)OC2=O)c1OCOC(=O)C(C)C | 80 to 100%

Shifting focus to the molecule that follows.
Inquiry: GET /values?readout=pest or weed control at 100 ppm&item= "COC(=O)CCO[C@@H]1[C@@H](Cc2ccccc2)COC[C@H](NC(=O)c2nccc(OC)c2O)C(=O)O[C@H]1C"
Reply text: 0 to 80%
